MIC overview
Tested on: P. vulgaris 1028
Method summary: Minimum inhibitory concentration in vitro, agar dilution method
Assay type: cell-based
Experimental parameters: Proteus vulgaris, 1028

Chemical string	Qualifier	MIC (µg/mL)
Cc1cc(SCC2=C(C(=O)[O-])N3C(=O)[C@@H](NC(=O)/C(=N\OCc4ccc(O)c(O)c4F)c4csc(N)n4)[C@H]3SC2)n2nc(CS(=O)(=O)c3ccc(O)c(O)c3)nc2n1.[Na+]	=	0.25
Cc1cc(SCC2=C(C(=O)[O-])N3C(=O)[C@@H](NC(=O)/C(=N\OC(C)(C)C(=O)NNC(=O)c4ccc(O)c(O)c4)c4csc(N)n4)[C@H]3SC2)n2nc(CNS(=O)(=O)c3ccc(O)c(O)c3)nc2n1.[Na+]	=	0.25
Cc1cc(SCC2=C(C(=O)[O-])N3C(=O)[C@@H](NC(=O)/C(=N\OCc4ccc(O)c(O)c4)c4csc(N)n4)[C@H]3SC2)n2nc(CS(=O)(=O)c3ccc(O)c(O)c3)nc2n1.[Na+]	=	0.25
Cc1cc(SCC2=C(C(=O)[O-])N3C(=O)[C@@H](NC(=O)/C(=N\OCS(=O)(=O)c4ccc(O)c(O)c4)c4csc(N)n4)[C@H]3SC2)n2nc(CS(=O)(=O)c3ccc(O)c(O)c3)nc2n1.[Na+]	<	0.1
